B1: library; numbered along this chain (parent)
chain: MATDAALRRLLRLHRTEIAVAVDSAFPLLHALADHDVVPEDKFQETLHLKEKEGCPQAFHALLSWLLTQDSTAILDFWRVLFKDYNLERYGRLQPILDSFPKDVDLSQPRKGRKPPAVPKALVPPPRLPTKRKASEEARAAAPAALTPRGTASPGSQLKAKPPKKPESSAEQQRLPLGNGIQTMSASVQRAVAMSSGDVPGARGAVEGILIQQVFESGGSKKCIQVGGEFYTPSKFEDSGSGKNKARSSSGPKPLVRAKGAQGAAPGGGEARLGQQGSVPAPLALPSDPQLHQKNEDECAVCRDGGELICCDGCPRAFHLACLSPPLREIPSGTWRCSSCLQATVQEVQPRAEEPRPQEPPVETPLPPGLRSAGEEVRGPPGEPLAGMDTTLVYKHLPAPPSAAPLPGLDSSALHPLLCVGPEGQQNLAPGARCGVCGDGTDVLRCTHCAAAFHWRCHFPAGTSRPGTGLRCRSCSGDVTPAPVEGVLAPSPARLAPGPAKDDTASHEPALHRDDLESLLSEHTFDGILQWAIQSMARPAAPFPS

Variants of: B1
METHOD DESCRIPTION: AIRE transcriptional activation functional score (insulin promoter-GFP; nonsense median 0, synonymous median 1) (normalised score); higher = higher AIRE activity (more reporter activation)
TEST CONTEXT: with insulin promoter-GFP reporter in HEK293
RECORDED METRIC: AIRE transcriptional activation functional score

{"columns": ["VARIANT KEY", "MEASURED RESULT"],
 "data": [
  ["R378D", 0.631],
  ["A258R", 0.0043],
  ["V226W", 1.21],
  ["P124Q", 0.964],
  ["A121W", 1.54],
  ["H60C", -0.27],
  ["T391H", 1.17],
  ["C457H", 0.798],
  ["T468Y", 1.25],
  ["A160L", 0.749],
  ["E376D", 0.34],
  ["E45T", -0.232],
  ["K395I", 0.422],
  ["Q425Y", 1.28],
  ["R132H", 0.458],
  ["A343G", 0.94],
  ["A21L", -0.19],
  ["G379I", 1.26],
  ["T3V", 0.465],
  ["A500I", 1.1],
  ["A500L", 0.907],
  ["A140S", 1.02],
  ["E485I", 1.1],
  ["K42N", 0.98],
  ["P539I", 0.0871],
  ["P483V", 1.03],
  ["D198P", 0.58],
  ["P497F", 1.03],
  ["V188E", 0.556],
  ["I209R", 0.917],
  ["Q262L", 1.31],
  ["A160F", 1.12],
  ["G227V", 0.378],
  ["T46A", 0.0907],
  ["S402H", 1.48],
  ["T232H", 0.729],
  ["P280L", 1.28],
  ["R92D", 0.169],
  ["K50T", 0.51],
  ["A142N", 0.413],
  ["G486C", 0.625],
  ["P497T", 1.09],
  ["S24I", 0.123],
  ["D70G", 0.895],
  ["E298N", 1.56],
  ["S287A", 1.17]
]}
